- System: PBMCs
- experimental-details: IL-2 release in CD3/CD28 stimulated PBMC cells (assay c)
- Type: cell-based
- particulars: Homo sapiens, read-out: IC50 Values for Inhibition of Cytokine Release, PBMCs IL-2
attribute-measured: pIC50
Numbers only, as −log10 of the molar value.

COc1cc(Nc2cc(Oc3ccc(NC(=O)Nc4cc(C(C)(C)C)cc([S+](C)[O-])c4OC)c4ccccc34)ccn2)cc(OC)c1 (stereo not shown)
6.75
COc1c(NC(=O)Nc2ccc(Oc3ccnc(Nc4cc(C#N)cc(OCCCN5CCOCC5)c4)c3)c3ccccc23)cc(C(C)(C)C)cc1[S+](C)[O-] (stereo not shown) [79(e)]
7.28
COc1c(NC(=O)Nc2ccc(Oc3ccnc(Nc4ccccc4)c3)c3ccccc23)cc(C(C)(C)C)cc1P(C)(C)=O
7.09
COc1c(CNC(C)=O)cc(C(C)(C)C)cc1NC(=O)Nc1ccc(Oc2ccnc(Nc3cc(C#N)cc(OCCN4CCOCC4)c3)c2)c2ccccc12
7.52
C#Cc1cc(Nc2cc(Oc3ccc(NC(=O)Nc4cc(C(C)(C)C)cc(P(C)(C)=O)c4OC)c4ccccc34)ccn2)cc(C(=O)NCCOCCOCCOC)c1
6.74

Look up pIC50 for the entries below, preserving their order.
1. COCCOCCOCCNC(=O)c1cc(Nc2cc(Oc3ccc(NC(=O)Nc4cc(C(C)(C)C)cc(CNC(=O)CN(C)C)c4OC)c4ccccc34)ccn2)cc(OC)c1
2. COc1c(CC(N)=O)cc(C(C)(C)C)cc1NC(=O)Nc1ccc(Oc2ccnc(Nc3ccccc3)c2)c2ccccc12
3. COc1cc(Nc2cc(Oc3ccc(NC(=O)Nc4cc(C(C)(C)C)cc(CC(N)=O)c4OC)c4ccccc34)ccn2)cc(S(C)(=O)=O)c1

1. 7.72
2. 6.69
3. 6.63

Look up pIC50 for the entries below, preserving their order.
1. COCCOCCOCCOc1cc(Nc2cc(Oc3ccc(NC(=O)Nc4cc(C(C)(C)C)cc(CS(C)(=O)=O)c4OC)c4ccccc34)ccn2)cc(OC)c1
2. COc1cc(Nc2cc(Oc3ccc(NC(=O)Nc4cc(C(C)(C)C)cc(S(C)(=O)=O)c4OC)c4ccccc34)ccn2)ccc1C(=O)O
3. COc1cc(Nc2cc(Oc3ccc(NC(=O)Nc4cc(C(C)(C)C)cc(CC(N)=O)c4OC)c4ccccc34)ccn2)cc(S(=O)(=O)N(C)C)c1
4. COc1cc(Nc2cc(Oc3ccc(NC(=O)Nc4cc(C(C)(C)C)cc(P(C)(C)=O)c4OC)c4ccccc34)ccn2)cc(S(=O)(=O)N(C)CCN2CCOCC2)c1

1. 7.36
2. 6.38
3. 6.47
4. 6.94

Look up pIC50 for the entries below, preserving their order.
1. COc1cc(Nc2cc(Oc3ccc(NC(=O)Nc4cc(C(C)(C)C)cc(CC(N)=O)c4OC)c4ccccc34)ccn2)cc(C(=O)NCCCN2CC[S+]([O-])CC2)c1
2. COc1cc(F)cc(Nc2cc(Oc3ccc(NC(=O)Nc4cc(C(C)(C)C)cc(P(C)(C)=O)c4OC)c4ccccc34)ccn2)c1
3. COCCOCCOCCNC(=O)c1cc(Nc2cc(Oc3ccc(NC(=O)Nc4cc(C(C)(C)C)cc([S+](C)[O-])c4OC)c4ccccc34)ccn2)cc(OC)c1 (stereo not shown)

7.39
6.60
6.94

Look up pIC50 for the entries below, preserving their order.
1. COc1cccc(Nc2cc(Oc3ccc(NC(=O)Nc4cc(C(C)(C)C)cc(CC(N)=O)c4OC)c(Cl)c3Cl)ccn2)c1
2. COc1cc(Nc2cc(Oc3ccc(NC(=O)Nc4cc(C(C)(C)C)cc([S+](C)[O-])c4OC)c4ccccc34)ccn2)cc(C(=O)NCCN2CC[S+]([O-])CC2)c1 (stereo not shown)
3. COc1cc(Nc2cc(Oc3ccc(NC(=O)Nc4cc(C(C)(C)C)cc(P(C)(C)=O)c4OC)c4ccccc34)ccn2)ccc1C(=O)NCCN1CCOCC1
4. COc1c(NC(=O)Nc2ccc(Oc3ccnc(Nc4ccccc4)c3)c3ccccc23)cc(C(C)(C)C)cc1OCP(C)(C)=O [15(e)]

[7.20, 7.12, 6.66, 7.59]

---

- Tested on: PBMCs
- experimental-details: LPS-induced IL-8 release in PBMC cells (assay b)
- Format: cell-based, human
- particulars: Homo sapiens, PBMC; LPS-stimulated PBMCs; read-out: IC50 Values for Inhibition of Cytokine Release, PBMCs IL-8
attribute-measured: pIC50
Numbers only, as −log10 of the molar value.

Look up pIC50 for the entries below, preserving their order.
1. COc1c(NC(=O)Nc2ccc(Oc3ccnc(Nc4ccccc4)c3)c3ccccc23)cc(C(C)(C)C)cc1[S+](C)[O-] (single isomer, unassigned) [38(b2)]
2. COc1c(NC(=O)Nc2ccc(Oc3ccnc(Nc4cnccn4)n3)c3ccccc23)cc(C(C)(C)C)cc1P(C)(C)=O [15(q)]

1: 8.22; 2: 8.21

---

So I've got a bunch of molecules here, and I need their pIC50 values.
- Tested on: PBMCs
- experimental-details: LPS-induced IL-8 release in PBMC cells (assay b)
- Assay type: cell-based, human
- particulars: Homo sapiens, PBMC; LPS-stimulated PBMCs; read-out: IC50 Values for Inhibition of Cytokine Release, PBMCs IL-8
One number for each entry, as −log10 of the molar value.

COc1c(CNC(C)=O)cc(C(C)(C)C)cc1NC(=O)Nc1ccc(Oc2ccnc(Nc3cc(OCCN4CCOCC4)cc(C(F)(F)F)c3)c2)c2ccccc12 [Example 52]
8.55
Cc1c(NC(=O)Nc2ccc(Oc3ccnc(Nc4ccccc4)c3)c3ccccc23)cc(C(C)(C)C)cc1P(C)(C)=O [15(ap)]
7.32
COCCOCCOCCOc1cc(Nc2cc(Oc3ccc(NC(=O)Nc4cc(C(C)(C)C)cc([S+](C)[O-])c4OC)c4ccccc34)ccn2)cc(OC)c1 (stereo not shown) [Example 17]
9.05

Attention now shifts to the item below.
Value of measured pIC50 for the entry COc1c(NC(=O)Nc2ccc(Oc3ccnc(NC4CCN(C)CC4)n3)c3ccccc23)cc(C(C)(C)C)cc1P(C)(C)=O [15(ah)] : 6.52

---

So I've got a bunch of compounds here, and I need their % β-catenin induction values.
- Tested on: d-U937 cells
- experimental-details: Accumulation of β catenin in d-U937 cells (assay m)
- Assay type: cell-based, human
- particulars: test compound 1 μg/mL; percentage relative to Reference Compound at 1 μg/mL
One number for each entry, in %.

COc1cc(Nc2cc(Oc3ccc(NC(=O)Nc4cc(C(C)(C)C)cc(CC(N)=O)c4OC)c4ccccc34)ccn2)ccn1 [38(k)]
10.5
COc1cc(Nc2cc(Oc3ccc(NC(=O)Nc4cc(C(C)(C)C)cc([S+](C)[O-])c4OC)c4ccccc34)ccn2)cc(OC)c1 (stereo not shown) [Example 40]
−2.0
COc1c(CC(N)=O)cc(C(C)(C)C)cc1NC(=O)Nc1ccc(Oc2ccnc(Nc3cc(C)cc(C)c3)c2)c2ccccc12 [38(f)]
2.0
COCCOCCOCCOc1cc(Nc2cc(Oc3ccc(NC(=O)Nc4cc(C(C)(C)C)cc(C(=O)NCCN5CCOCC5)c4OC)c4ccccc34)ccn2)cc(OC)c1 [Example 16]
0.0
COc1c(NC(=O)Nc2ccc(Oc3ccnc(Nc4cnccn4)n3)c3ccccc23)cc(C(C)(C)C)cc1P(C)(C)=O [15(q)]
5.0

Look up % β-catenin induction for the entries below, preserving their order.
1. COc1cc(F)cc(Nc2cc(Oc3ccc(NC(=O)Nc4cc(C(C)(C)C)cc(P(C)(C)=O)c4OC)c4ccccc34)ccn2)c1 [15(an)]
2. COc1cccc(Nc2cc(Oc3ccc(NC(=O)Nc4cc(C(C)(C)C)cc(CC(N)=O)c4OC)c4ccccc34)ccn2)c1 [Example 33]
3. COc1c(NC(=O)Nc2ccc(Oc3ccnc(NCc4ccccn4)c3)c3ccccc23)cc(C(C)(C)C)cc1[S+](C)[O-] (stereo not shown) [Example 42]
4. COc1c(CS(C)(=O)=O)cc(C(C)(C)C)cc1NC(=O)Nc1ccc(Oc2ccnc(Nc3ccccc3)c2)c2ccccc12 [Example 19]
5. COc1c(NC(=O)Nc2ccc(Oc3ccnc(Nc4ccn(C)n4)c3)c3ccccc23)cc(C(C)(C)C)cc1P(C)(C)=O [Example 36]
6. COc1cc(Nc2cc(Oc3ccc(NC(=O)Nc4cc(C(C)(C)C)cc(P(C)(C)=O)c4OC)c4ccccc34)ccn2)cc(OC)c1 [Example 27]
7. COCCOCCOCCOc1cc(Nc2cc(Oc3ccc(NC(=O)Nc4cc(C(C)(C)C)cc(P(C)(C)=O)c4)c4ccccc34)ccn2)cc(OC)c1 [Example 10]
8. COCC(=O)Nc1cc(Oc2ccc(NC(=O)Nc3cc(C(C)(C)C)nn3-c3ccc(C)cc3)c3ccccc23)ccn1 [Reference Compound, reference compound]

[1.5, "−1.0", "−5.0", 2.5, 17.5, 5.7, "−2.5", 100]
